Here, each record is paired with measured viability, T/C data.
# System: 463943-066-T-J2-PDC tumor spheroids with HUVEC/MSC, viability;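 further: spheroids exposed to drugs for seven days; 100% = DMSO vehicle control wells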
# protocol.description: Anticancer human tumor 463943-066-T-J2-PDC patient-derived colon adenocarcinoma cell line growth inhibition [TAK]
# test.conditions: second compound 0.949 µM; first compound 0.001 µM; hits give low values
Give the number; % is assumed, so skip it.

Answered cases to consult:
CC(C)CC(NC(=O)C(Cc1ccccc1)NC(=O)c1cnccn1)B(O)O (centres undefined) + CC(C)NCC(C(=O)N1CCN(c2ncnc3c2C(C)CC3O)CC1)c1ccc(Cl)cc1; 84.3
COC1CC2CCC(C)C(O)(O2)C(=O)C(=O)N2CCCCC2C(=O)OC(C(C)CC2CCC(OCCO)C(OC)C2)CC(=O)C(C)C=C(C)C(O)C(OC)C(=O)C(C)CC(C)C=CC=CC=C1C (centres undefined) + CC(C)NCC(C(=O)N1CCN(c2ncnc3c2C(C)CC3O)CC1)c1ccc(Cl)cc1; 90.9
CC(C)CC(NC(=O)CNC(=O)c1cc(Cl)ccc1Cl)B1OC(=O)CC(CC(=O)O)(C(=O)O)O1 (centres undefined) + CC(C)NCC(C(=O)N1CCN(c2ncnc3c2C(C)CC3O)CC1)c1ccc(Cl)cc1; 102

# ---- query compound ----
# return recorded viability, T/C for entry CC(C)n1nc(-c2ccc3oc(N)nc3c2)c2c(N)ncnc21 + CC(C)NCC(C(=O)N1CCN(c2ncnc3c2C(C)CC3O)CC1)c1ccc(Cl)cc1
97.2
